- Test system: HEK-293T
- Assay Notes: Incucyte cell viability with HEK293T; note: filed as whole numbers so only -1 and 0 and 1 occur
- Format: toxicity, cell-based
- Test Parameters: human, 6 h, 10 µM, compound concentration 10 uM, replicate number 1, timepoint 6 hours
Reported Property: Growth Rate
Lab note: jot down the number only; don't add units.

Per the reported HEK-293T data, CC[C@@H]1C(=O)N(C)c2cnc(Nc3ccc(C(=O)NC4CCN(C)CC4)cc3OC)nc2N1C1CCCC1 has Growth Rate of 0

Cc1cc(OCC(=O)O)cc(C)c1Cc1ccc(O)c(C(C)C)c1 tested on HEK-293T gave Growth Rate: 0

CC1=C2C[C@H]3[C@@H](CC=C4C[C@@H](O)CC[C@@]43C)[C@@H]2CC[C@]12O[C@@H]1C[C@H](C)CN[C@H]1[C@H]2C tested on HEK-293T gave Growth Rate: 0

Observed Growth Rate on HEK-293T, entry NS(=O)(=O)c1cc(NC(=O)Cc2ccccc2)ccc1Oc1cccc(Cl)c1 , equals 0

# lookup: CCOC(=O)CCNc1cc(N2CCc3ccccc3CC2)nc(-c2ccccn2)n1 on HEK-293T, Growth Rate = 0

Known value: HEK-293T Growth Rate of the compound CCCCC#Cc1nc(NC)c2ncn([C@@H]3O[C@H](CO)[C@@H](O)[C@H]3O)c2n1 equals 0

Measured Growth Rate (HEK-293T), entry CC(C)c1cc(Nc2nc(N3CCC[C@H](N)C3)ncc2C(N)=O)cc(C(C)C)n1 : 0

Tested on HEK-293T: CN(C)CCCN1c2ccccc2CCc2ccccc21.Cl [IMIPRAMINE HYDROCHLORIDE] . Observed Growth Rate: 0

Field Growth Rate (HEK-293T), entry COc1ccc(Br)cc1S(=O)(=O)NC(=O)/C=C/c1ccccc1Cc1ccc2ccccc2c1 : 0

Log: HEK-293T, compound CC(/C=C1\SC(=S)N(CCCC(=O)Nc2ccc(C(=O)O)c(O)c2)C1=O)=C\c1ccccc1 , Growth Rate = 1

Case Cc1c(C2=CCN(C(=O)N(C)C(C)C)CC2)nnn1-c1cccnc1F , HEK-293T, Growth Rate recorded as 1

Tested on HEK-293T, the item CCCc1cc(C)[nH]c(=O)c1CNC(=O)c1cc(-c2ccc(N3CCN(C(C)C)CC3)nc2)cc2c1cnn2C(C)C showed Growth Rate equal to 0

Simply: CC(Cc1ccc(O)c(O)c1)C(C)Cc1ccc(O)c(O)c1 (stereo not drawn) [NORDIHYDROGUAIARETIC ACID] , HEK-293T, Growth Rate = 0

Here Cc1c(F)cccc1NC(=O)Nc1ccc(Cl)c(S(=O)(=O)[C@H]2CCCNC2)c1O was tested on HEK-293T, and its Growth Rate came to 0

Short answer on HEK-293T for CCOC(=O)c1ncn2c1CN(C)C(=O)c1cc(F)ccc1-2 , Growth Rate: 1

Value (Growth Rate, HEK-293T) for record CNC(=O)Nc1ccc2c(c1)CC[C@@]21OC(=O)N(CC(=O)N(Cc2ccc(F)cc2)[C@@H](C)C(F)(F)F)C1=O = 0

Let me check: CC(C)NCC(O)COc1cccc2ccccc12.Cl (stereo not drawn) [PROPRANOLOL HYDROCHLORIDE] , system HEK-293T, measured Growth Rate is 0

Item CC(C)c1ccc(CC(=O)N2CCC[C@@H](c3cccc(OC(C)(C)C(=O)O)c3)C2)cc1 ; assay system HEK-293T; Growth Rate reported as 0
